- assayed_system: α4β1 (Homo sapiens, UniProt P05556+P13612)
- Construct: Ramos Cell Adhesion Assay (α4β1 Mediated Adhesion/VCAM-1); endogenous in cells; host or cells: Ramos cells
- Sequence (P13612 34-1032): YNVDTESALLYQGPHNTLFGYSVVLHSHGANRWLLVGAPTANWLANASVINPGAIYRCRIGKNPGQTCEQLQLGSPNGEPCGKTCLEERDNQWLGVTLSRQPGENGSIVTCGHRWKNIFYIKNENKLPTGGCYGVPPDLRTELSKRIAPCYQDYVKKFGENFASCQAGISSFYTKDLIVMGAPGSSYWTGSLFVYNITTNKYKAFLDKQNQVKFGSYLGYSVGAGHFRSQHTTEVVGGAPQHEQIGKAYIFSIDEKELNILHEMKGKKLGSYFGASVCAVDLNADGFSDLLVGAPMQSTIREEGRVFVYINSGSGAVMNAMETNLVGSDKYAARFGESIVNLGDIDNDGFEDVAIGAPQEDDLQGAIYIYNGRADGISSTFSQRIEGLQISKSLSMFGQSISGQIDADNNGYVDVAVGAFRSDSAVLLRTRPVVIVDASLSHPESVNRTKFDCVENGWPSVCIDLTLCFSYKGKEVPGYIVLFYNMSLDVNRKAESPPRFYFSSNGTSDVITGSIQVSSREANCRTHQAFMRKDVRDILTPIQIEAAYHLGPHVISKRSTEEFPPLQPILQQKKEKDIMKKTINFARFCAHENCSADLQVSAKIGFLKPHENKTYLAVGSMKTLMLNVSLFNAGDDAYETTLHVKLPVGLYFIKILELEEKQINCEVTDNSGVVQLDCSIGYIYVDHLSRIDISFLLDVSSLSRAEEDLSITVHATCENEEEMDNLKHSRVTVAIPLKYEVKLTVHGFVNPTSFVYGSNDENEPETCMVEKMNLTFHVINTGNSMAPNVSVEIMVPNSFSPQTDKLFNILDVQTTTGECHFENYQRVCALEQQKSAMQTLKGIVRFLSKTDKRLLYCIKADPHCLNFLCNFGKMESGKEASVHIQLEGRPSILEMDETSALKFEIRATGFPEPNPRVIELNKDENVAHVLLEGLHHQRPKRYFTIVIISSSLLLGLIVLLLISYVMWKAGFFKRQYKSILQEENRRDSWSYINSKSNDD
- Sequence (P05556 21-798): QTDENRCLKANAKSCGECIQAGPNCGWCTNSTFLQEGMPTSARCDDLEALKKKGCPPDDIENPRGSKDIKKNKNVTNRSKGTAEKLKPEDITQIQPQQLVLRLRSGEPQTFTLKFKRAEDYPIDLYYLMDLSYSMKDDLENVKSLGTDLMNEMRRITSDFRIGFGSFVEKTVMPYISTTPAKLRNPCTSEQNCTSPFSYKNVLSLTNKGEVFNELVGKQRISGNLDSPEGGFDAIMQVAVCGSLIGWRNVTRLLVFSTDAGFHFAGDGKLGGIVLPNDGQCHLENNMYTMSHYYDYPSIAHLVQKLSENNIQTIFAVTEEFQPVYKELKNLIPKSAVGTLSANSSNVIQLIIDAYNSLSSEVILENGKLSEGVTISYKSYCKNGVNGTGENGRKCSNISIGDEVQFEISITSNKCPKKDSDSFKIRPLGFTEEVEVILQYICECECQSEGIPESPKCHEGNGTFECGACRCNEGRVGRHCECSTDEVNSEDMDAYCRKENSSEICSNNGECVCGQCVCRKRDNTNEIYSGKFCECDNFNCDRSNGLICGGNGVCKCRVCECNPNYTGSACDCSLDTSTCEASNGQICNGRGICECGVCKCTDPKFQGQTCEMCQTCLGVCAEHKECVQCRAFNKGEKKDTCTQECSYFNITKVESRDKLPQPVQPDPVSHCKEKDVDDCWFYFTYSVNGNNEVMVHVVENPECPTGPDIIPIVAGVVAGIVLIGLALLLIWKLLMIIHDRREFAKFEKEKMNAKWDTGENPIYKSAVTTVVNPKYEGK
- test_name: Ramos Cell Adhesion Assay (α4β1 Mediated Adhesion/VCAM-1)
- Assay type: cell-based
- test_context: Ramos cell adhesion to hVCAM-1; read-out: α4β1 IC50
# IC50 listing for each entry below
All answers are understood in nM, so give the number only.

The compound listed as COc1cnn(C)c(=O)c1-c1ccc(CC(NC(=O)C(NC(C)C)C(C)C)C(=O)O)cc1 (stereo not drawn) shows IC50 equal to 2050

###

- assayed_system: α4β1 (Homo sapiens, UniProt P05556+P13612)
- Construct: Ramos Cell Adhesion Assay (α4β1 Mediated Adhesion/VCAM-1); endogenous in cells; host or cells: Ramos cells
- test_name: Ramos Cell Adhesion Assay (α4β1 Mediated Adhesion/VCAM-1)
- Format: cell-based
- test_context: Ramos cell adhesion to hVCAM-1; read-out: α4β1 IC50
readout: IC50

CC(C)(C)C(=O)Cn1ncc(NC2CC2)c(-c2ccc(C[C@H](NC(=O)c3c(Cl)cccc3Cl)C(=O)O)cc2)c1=O [Cpd 92]; > 5 µM

The compound listed as Cn1ncc(N)c(-c2ccc(C[C@H](NC(=O)OC(C)(C)C)C(=O)O)cc2)c1=O [Cpd 190] shows IC50 equal to > 5 µM

The compound listed as COc1cnn(CCN2CCOCC2)c(=O)c1-c1ccc(C[C@H](NC(=O)[C@@H](NC(=O)OC(C)(C)C)[C@@H](C)O)C(=O)O)cc1 [Cpd 154] shows IC50 equal to > 5 µM

The compound listed as COc1cnn(C)c(=O)c1-c1ccc(C[C@H](NC(=O)C(c2ccccc2)C(C)C)C(=O)O)cc1 (mixture of isomers) [Cpd 57] shows IC50 equal to 1.22 µM

The compound listed as COc1cnn(C)c(=O)c1-c1ccc(C[C@H](NC(=O)C(C)(C)NC2CCC3(CC2)OCCO3)C(=O)O)cc1 [Cpd 220] shows IC50 equal to > 5 µM
